- EXPERIMENT: NCI Yeast Anticancer Drug Screen. Data for the wt1 strain (AID 149);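 note: 0% = growth of vehicle-treated wt1 cultures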
- EXPERIMENTAL_SETUP: S. cerevisiae wt1 strain (SPY 50644) growth inhibition; at 11.0 µM; stronger effect = higher value
The panel holds about 79,000 compounds, 15% with a hit somewhere; the sample as a whole holds those more often.
MEASURE: growth inhibition (%)
Lab book: enter the figure in %, no units written.

# example entries with known answers
MOLECULE	UNITS_TEXT	growth inhibition
CN(N=O)C(=O)NNC(=O)N(C)N=O	%	5
OC(c1ccc(Br)cc1)C(Cl)(Cl)Cl (configuration not stated)	%	-1

Exercise: Given the entry COC1C(O)C(C)OC(OC2C(Oc3cccc4c(O)c5c(=O)oc6ccc(C)c7c(=O)oc(c34)c5c67)OC(C)C(O)C2O)C1O (configuration not stated) , report its measured growth inhibition.
Key: 8

Exercise: Given the entry O=[N+]([O-])O.[NH-]C1CCCCC1[NH-].[NH-]C1CCCCC1[NH-].[NH-]C1CCCCC1[NH-].[OH-].[OH-].[OH-].[Pt+4].[Pt+4].[Pt+4] (configuration not stated) , report its measured growth inhibition.
Key: -14

Exercise: Given the entry C/C(CCl)=N/NC1=NC(c2ccccc2Cl)P(=O)(NCCCNP2(=O)SC(N/N=C(/C)CCl)=NC2c2ccccc2Cl)S1 (configuration not stated) , report its measured growth inhibition.
Key: -5

###

growth inhibition listing for selected compounds.
- EXPERIMENT: NCI Yeast Anticancer Drug Screen. Data for the rad50 strain (AID 155);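 note: 0% = growth of vehicle-only cultures of the same strain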
- EXPERIMENTAL_SETUP: S. cerevisiae rad50 strain growth inhibition; at 11.0 µM; stronger effect = higher value
Compounds without any hit were thinned out: in the full panel of roughly 79,000, 15% have a hit.
Lab book: enter the figure in %, no units written.

> print(dat)
                                   compound  units.text  experimental.result
1  CS(=O)(=O)OCCN(CCOS(C)(=O)=O)c1ccc(C=O)cc1           %                   60
2  CC1CC(C)CC(C)C(O)/C(C#N)=C/C=C/CC(C2CCCC2C(=O)O)OC(=O)CC(O)C(C)C1 (stereo unspecified)           %                   97

Exercise: Given the entry `COc1ccc(OC)c(/C=C/[N+](=O)[O-])c1` , report its measured growth inhibition.
Key: 48

Exercise: Given the entry `COC(=O)C1=C(C(=O)OC)SC2(S1)C(C(=O)OC)=C(C(=O)OC)Sc1c2ssc1=O` , report its measured growth inhibition.
Key: 93

Exercise: Given the entry `O=[N+]([O-])c1oc2ccc3ccccc3c2c1CCO` , report its measured growth inhibition.
Key: 96

Exercise: Given the entry C[C@@]12CCC(=O)C=C1CC[C@H]1C2=CC[C@]2(C)C1CC[C@@]2(C)O (stereo partly specified) , report its measured growth inhibition.
Key: 5

Exercise: Given the entry `CNCC(O)c1ccc(O)c(O)c1.[Pt].c1ccc([PH+](c2ccccc2)c2ccccc2)cc1.c1ccc([PH+](c2ccccc2)c2ccccc2)cc1` , report its measured growth inhibition.
Key: -1

Exercise: Given the entry C[N+](C)(C)CC1CCCC(C[N+](C)(C)C)C1=O (stereo unspecified) , report its measured growth inhibition.
Key: 37

Exercise: Given the entry `Nc1nnc(N)n1-n1c(N)nnc1N` , report its measured growth inhibition.
Key: -3

Exercise: Given the entry `Oc1cccc2cccnc12` , report its measured growth inhibition.
Key: 97

Exercise: Given the entry CCNC(=O)OCC1C2=C(C(=O)C(C)=C(N)C2=O)N2CC3C(N3C)C12OC (stereo unspecified) , report its measured growth inhibition.
Key: 19
